Tested on: H1 or H9 human embryonic stem cells
Assay: Activin A bioassay: differentiation of human embryonic stem cells to definitive endoderm, cell number and SOX17 intensity by high content analysis (96-well, four days)
Assay type: cell-based
Settings: supernatant concentration 10x, assay dilution 1:20; control = R&D Sys Activin A 100 ng/ml on same plate
measuredParameter: Sox 17 Intensity % of control (%)
All answers are understood in %, so give the number only.

molecule	Sox 17 Intensity % of control [%]
ACTN7: activin A variant peptide, SEQ ID 8 (protein) GLECDGKVNYCCKKQHFVSFKDIGWNDWIIAPSGYHANSCSGLCPSHIAGTSGSSLSFHSTVINHYRMRGHSPFSQMGSCCIPTKLRPMSMLYYDDGQNIIKKDIQNMIVEECGCS	10.4

input: Name the reported Sox 17 Intensity % of control value associated with the molecule ACTN38: activin A variant peptide, SEQ ID 39 (protein) GLECDGKVNLCCKKQDFVSFKDIGWNDWIIAPSGYHANKCGGKCPSHIAGTSGSSLSFHSTVINHYRMRGHSPFSQLGACCVPTKLRPMSMLYYDDGQNIIKKDIQNMIVEECGCS
output: 4.2
